Tested on: Interferon-α
Assay: Induction of Interferon-α using fresh human PBMCs
Assay type: cell-based
Settings: PBMC, 24 hr incubation, relative to 2 μM resiquimod control, read-out: mean pEC50 for induction of IFN-α (converted)
EC50 overview

Please review the entries below; each comes with its answer.
Compound	System tested	EC50
CCCCOc1nc(N)c2[nH]c(=O)n(CCCCC3CCN(CCC)CC3)c2n1	Interferon-α	< 1 nM
CCC[C@H](C)Oc1nc(N)c2[nH]c(=O)n(CCC3CCN(C(C)C)CC3)c2n1	Interferon-α	< 10 nM
CCCCOc1nc(N)c2[nH]c(=O)n(CC3CCCN(C(C)C)C3)c2n1 (stereo not drawn)	Interferon-α	< 100 nM
CCCCOc1nc(N)c2[nH]c(=O)n(CC3CCCN(CC)C3)c2n1 (stereo not drawn)	Interferon-α	< 100 nM
CCCCOc1nc(N)c2[nH]c(=O)n(CCC3CCCN(C(C)C)C3)c2n1 (stereo not drawn)	Interferon-α	< 1 nM

Note: attention shifts to another entry.
Per the records, this compound ( CCCCOc1nc(N)c2[nH]c(=O)n(CCCC3CCCCN3CC(C)C)c2n1 (stereo not drawn) ) has EC50 equal to < 0.316 nM
